# targetUnderTest: T1, 5-Helix (HIV-1 group M subtype B, HXB2 (gp41 …, stabilised))
# T1 construct: also called designed protein based on HIV-1 gp41
# assay: ELISA
# conditions: one partner purified

>  <binder>
25F12 bivalent scFv on phage (scFv, V domains shown) VH: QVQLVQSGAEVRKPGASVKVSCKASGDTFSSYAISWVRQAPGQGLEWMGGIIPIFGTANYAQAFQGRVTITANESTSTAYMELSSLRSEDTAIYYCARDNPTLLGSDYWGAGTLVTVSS VL: DIQMTQSPSTLSASIGDRVTITCRASEGIIGHLAWYQQKPGKAPKLLIYNASRLASGAPSRFSGSGSGTDFTLTISSLQPDDFATYYCQQRDDYPLTFGGGTKLEIK

>  <phage ELISA signal OD450, OD450>
2.7

$$$$
>  <binder>
25D3 bivalent scFv on phage (scFv, V domains shown) VH: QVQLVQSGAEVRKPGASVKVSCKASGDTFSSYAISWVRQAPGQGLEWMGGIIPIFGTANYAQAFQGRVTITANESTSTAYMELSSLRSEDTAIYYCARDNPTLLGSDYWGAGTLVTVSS VL: DIQMTQSPSTLSASIGDRVTITCRASENIHRRLAWYQQKPGKAPKLLIYSAYSLASGAPSRFSGSGSGTDFTLTISSLQPDDFATYYCQQNSDYPHTFGGGTKLEIK

>  <phage ELISA signal OD450, OD450>
1.6

$$$$

Taken from paper PMC3626704.
